Assay: Plasma level of dipyridamole (HPLC)
Assay type: in vivo, human
Conditions: 0.3-0.4 mg/kg iv over 5-10 min; SEM; read-out: dipyridamole plasma level during hypotensive periods
Procedure: Blood gases were measured with appropriate electrodes for pH, PCO2, and PO2 (Radiometer, Copenhagen). The hemoglobin concentration was determined spectrophotometrically. […] Adenosine and inosine were purified and analyzed by HPLC as described by Fredholm and Sollevi., J. Physiol. […] Hypoxanthine, xanthine, and uric acid were analyzed by HPLC according to the method of Schweinsberg and Loo., J. Chromatogr., 181: 103-7 (1980). Arterial levels of dipyridamole were determined by HPLC. […]
measured-attribute: concentration (nM)
Enter your answer as a number in nM; do not include the unit.

Query :: Tell us which concentration value is on record for OCCN(CCO)c1nc(N2CCCCC2)c2nc(N(CCO)CCO)nc(N3CCCCC3)c2n1
Result :: 1200

----------
Assay: Plasma half-life of adenosine
Type: in vivo
measured-attribute: half-life

Query :: Tell us which half-life value is on record for Nc1ncnc2c1ncn2[C@@H]1O[C@H](CO)[C@@H](O)[C@H]1O [adenosine]
Result :: < 10 s

----------
Experiment: Plasma adenosine and metabolite concentrations during cardiopulmonary bypass (HPLC)
Conditions: human, venous plasma, iv, 0.1 mg/kg/min, Venous concentration
measured-attribute: concentration at 80 min (nM)
Enter your answer as a number in nM; do not include the unit.

Query :: Tell us which concentration at 80 min value is on record for OC[C@H]1O[C@@H](n2cnc3c(O)ncnc32)[C@H](O)[C@@H]1O
Result :: 1600

----------
Assay: Plasma adenosine and metabolite concentrations during cardiopulmonary bypass (HPLC)
Conditions: read-out: Venous concentration; 20' post CPB; n = 6; 20 min
measured-attribute: concentration (nM)
Enter your answer as a number in nM; do not include the unit.

Query :: Tell us which concentration value is on record for OC[C@H]1O[C@@H](n2cnc3c(O)ncnc32)[C@H](O)[C@@H]1O [Inosine, inosine]
Result :: 400

----------
Assay: Plasma adenosine and metabolite concentrations during cardiopulmonary bypass (HPLC)
Conditions: human, venous plasma, iv, 0.1 mg/kg/min, Venous concentration
measured-attribute: concentration at 10 min (nM)
Enter your answer as a number in nM; do not include the unit.

Query :: Tell us which concentration at 10 min value is on record for OC[C@H]1O[C@@H](n2cnc3c(O)ncnc32)[C@H](O)[C@@H]1O [Inosine, inosine]
Result :: 900

----------
Experiment: Solubility of adenosine
Format: physicochemical
Settings: read-out: solubility limit
measured-attribute: solubility

Query :: Tell us which solubility value is on record for Nc1ncnc2c1ncn2[C@@H]1O[C@H](CO)[C@@H](O)[C@H]1O
Result :: ~20 mM

----------
Assay: Plasma adenosine and metabolite concentrations during cardiopulmonary bypass (HPLC)
Settings: human, in vivo, iv, 20 min
measured-attribute: concentration (nM)
Enter your answer as a number in nM; do not include the unit.

Query :: Tell us which concentration value is on record for Nc1ncnc2c1ncn2[C@@H]1O[C@H](CO)[C@@H](O)[C@H]1O [adenosine]
Result :: 400

----------
Test: Solubility of adenosine
Format: physicochemical
Settings: b421 prints mg/ml; read-out: solubility limit
measured-attribute: solubility

Query :: Tell us which solubility value is on record for Nc1ncnc2c1ncn2[C@@H]1O[C@H](CO)[C@@H](O)[C@H]1O
Result :: 5500 to 6000 µg/mL

----------
Test: Purine levels in arterial plasma before, during and after adenosine-induced controlled hypotension (HPLC)
Settings: read-out: Purine level in arterial plasma, during hypotension; Table I; during i.v. adenosine infusion; mean ± SEM; dipyridamole-pretreated
Each record here notes measured concentration.
Enter your answer as a number in µM; do not include the unit.

chemical_smiles=O=c1[nH]c(=O)c2[nH]c(=O)[nH]c2[nH]1 units_text=µM numeric_value=198

Here is another molecule to look at.
Query :: Tell us which concentration value is on record for OC[C@H]1O[C@@H](n2cnc3c(O)ncnc32)[C@H](O)[C@@H]1O
Result :: 3.01

----------
Assay: Purine levels in arterial plasma before, during and after adenosine-induced controlled hypotension (HPLC)
Conditions: read-out: Purine level in arterial plasma, after hypotension, 3-9 min; Table I; 3-9 min after hypotension; mean ± SEM
measured-attribute: concentration (nM)
Enter your answer as a number in nM; do not include the unit.

Query :: Tell us which concentration value is on record for OC[C@H]1O[C@@H](n2cnc3c(O)ncnc32)[C@H](O)[C@@H]1O
Result :: 690

----------
Assay: Plasma adenosine and metabolite concentrations during cardiopulmonary bypass (HPLC)
Conditions: read-out: Venous concentration; CPB 20'; adenosine infusion 0.1 mg/kg/min; n = 6; 20 min
measured-attribute: concentration (nM)
Enter your answer as a number in nM; do not include the unit.

Query :: Tell us which concentration value is on record for OC[C@H]1O[C@@H](n2cnc3c(O)ncnc32)[C@H](O)[C@@H]1O
Result :: 2400

----------
Assay: Purine levels in arterial plasma before, during and after adenosine-induced controlled hypotension (HPLC)
Details: read-out: Purine level in arterial plasma, after hypotension, 20-40 min; Table I; 20-40 min after hypotension; mean ± SEM
Each record here notes measured concentration.

chemical_smiles=O=c1[nH]c(=O)c2[nH]c(=O)[nH]c2[nH]1 measured_attribute=concentration result="200 µM"

Here is another compound to look at.
Query :: Tell us which concentration value is on record for OC[C@H]1O[C@@H](n2cnc3c(O)ncnc32)[C@H](O)[C@@H]1O
Result :: 0.29 µM

Provenance of the data: patent US5104859A
